Exercise: state measured melting point for each of the compounds provided.
Counter-ions that a name gives are not always drawn.

*Q* Requested read-out: melting point. Entry: COc1ccncc1Nc1nc(N2CCOCC2)nc(-n2c(C(F)F)nc3c(OC)cccc32)n1 [Example 27]
*A* 239 to 241 °C

*Q* Requested read-out: melting point. Entry: CN(c1cncnc1)c1nc(N2CCOCC2)nc(-n2c(C(F)F)nc3ccccc32)n1 [Example 44]
*A* 202 to 205 °C

*Q* Requested read-out: melting point. Entry: FC(F)c1nc2ccccc2n1-c1nc(Oc2cccnc2)nc(N2CCOCC2)n1 [Example 24]
*A* 229 to 231 °C

*Q* Requested read-out: melting point. Entry: CNc1ccc(Nc2nc(N3CCOCC3)nc(-n3c(C(F)F)nc4c(OC)cccc43)n2)cn1 [Example 38]
*A* 218 to 221 °C

*Q* Requested read-out: melting point. Entry: COc1cccc2c1nc(C(F)F)n2-c1nc(-c2ccc(N)nc2)nc(N2CCOCC2)n1 [Example 49]
*A* 259 to 261 °C

*Q* Requested read-out: melting point. Entry: COc1cccc2c1nc(C(F)F)n2-c1nc(Nc2cccnc2)nc(N2CCOCC2)n1 (as salt: methanesulfonate) [Example 2]
*A* 279 to 282 °C

*Q* Requested read-out: melting point. Entry: CSc1nc2ccccc2n1-c1nc(Nc2cccnc2)nc(N2CCOCC2)n1 [Example 4]
*A* 240 to 241 °C

*Q* Requested read-out: melting point. Entry: COc1cc(N)cc2c1nc(C(F)F)n2-c1nc(-c2cn[nH]c2)nc(N2CCOCC2)n1 (as salt: methanesulfonate) [Example 66]
*A* > 300 °C

*Q* Requested read-out: melting point. Entry: COc1cccc2c1nc(C(F)F)n2-c1nc(N2CCOCC2)nc(-n2ccnc2)n1 [Example 67]
*A* 272 to 275 °C

*Q* Requested read-out: melting point. Entry: COc1cccc2c1nc(C(F)F)n2-c1nc(Nc2ccc(N(C)C)nc2)nc(N2CCOCC2)n1 [Example 39]
*A* 136 to 137 °C

*Q* Requested read-out: melting point. Entry: COc1cccc2c1nc(C(F)F)n2-c1nc(Nc2cccnn2)nc(N2CCOCC2)n1 [Example 33]
*A* 261 to 263 °C

*Q* Requested read-out: melting point. Entry: FC(F)c1nc2ccccc2n1-c1nc(Nc2ncccn2)nc(N2CCOCC2)n1 [Example 19]
*A* 261 to 263 °C

*Q* Requested read-out: melting point. Entry: FC(F)c1nc2ccccc2n1-c1nc(Nc2ccccn2)nc(N2CCOCC2)n1 [Example 16]
*A* 230 to 232 °C

*Q* Requested read-out: melting point. Entry: COc1cc(N)cc2c1nc(C(F)F)n2-c1nc(N2CCOCC2)nc(-n2cccn2)n1 (as salt: methanesulfonate) [Example 64]
*A* > 300 °C

*Q* Requested read-out: melting point. Entry: COc1ccc(Nc2nc(N3CCOCC3)nc(-n3c(C(F)F)nc4c(OC)cccc43)n2)nn1 [Example 34]
*A* 256 to 259 °C

*Q* Requested read-out: melting point. Entry: COc1cccc2c1nc(C(F)F)n2-c1nc(Nc2cccnc2)nc(N2CCOCC2)n1 [Example 2]
*A* 221 to 223 °C

---

# experimental_system: p110β/p85 (Homo sapiens, UniProt P42338)
# Sequence (P42338 whole entry, species assumed): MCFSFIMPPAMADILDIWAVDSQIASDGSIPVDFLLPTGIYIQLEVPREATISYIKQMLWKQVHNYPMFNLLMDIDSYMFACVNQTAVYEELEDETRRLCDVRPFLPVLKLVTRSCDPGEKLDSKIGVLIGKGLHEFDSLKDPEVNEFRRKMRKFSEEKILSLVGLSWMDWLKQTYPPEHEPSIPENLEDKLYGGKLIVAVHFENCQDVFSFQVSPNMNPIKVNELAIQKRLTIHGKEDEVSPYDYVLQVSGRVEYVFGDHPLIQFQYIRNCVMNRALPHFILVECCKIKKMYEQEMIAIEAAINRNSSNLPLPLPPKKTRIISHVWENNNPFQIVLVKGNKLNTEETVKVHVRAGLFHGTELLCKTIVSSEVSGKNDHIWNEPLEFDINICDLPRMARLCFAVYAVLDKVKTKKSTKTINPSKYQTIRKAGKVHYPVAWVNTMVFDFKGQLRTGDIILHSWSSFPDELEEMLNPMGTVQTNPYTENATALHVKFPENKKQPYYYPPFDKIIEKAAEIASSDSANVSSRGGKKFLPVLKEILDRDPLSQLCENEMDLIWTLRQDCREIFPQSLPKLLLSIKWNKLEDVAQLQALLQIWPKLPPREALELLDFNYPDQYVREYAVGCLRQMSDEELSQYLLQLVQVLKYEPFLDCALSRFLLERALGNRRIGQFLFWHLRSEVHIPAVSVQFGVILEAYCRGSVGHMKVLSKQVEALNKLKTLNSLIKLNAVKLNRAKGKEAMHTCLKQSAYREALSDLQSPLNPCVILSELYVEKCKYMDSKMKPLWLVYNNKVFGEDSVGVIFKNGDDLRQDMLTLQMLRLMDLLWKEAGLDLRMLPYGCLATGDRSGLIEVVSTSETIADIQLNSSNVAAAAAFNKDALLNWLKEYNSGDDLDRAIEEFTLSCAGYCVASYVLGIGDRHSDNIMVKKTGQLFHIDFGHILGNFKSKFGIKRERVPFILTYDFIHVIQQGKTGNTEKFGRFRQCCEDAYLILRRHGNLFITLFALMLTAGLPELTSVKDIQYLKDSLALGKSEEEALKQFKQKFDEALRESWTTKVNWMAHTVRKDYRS
# Sequence (P27986 whole entry partner, species assumed): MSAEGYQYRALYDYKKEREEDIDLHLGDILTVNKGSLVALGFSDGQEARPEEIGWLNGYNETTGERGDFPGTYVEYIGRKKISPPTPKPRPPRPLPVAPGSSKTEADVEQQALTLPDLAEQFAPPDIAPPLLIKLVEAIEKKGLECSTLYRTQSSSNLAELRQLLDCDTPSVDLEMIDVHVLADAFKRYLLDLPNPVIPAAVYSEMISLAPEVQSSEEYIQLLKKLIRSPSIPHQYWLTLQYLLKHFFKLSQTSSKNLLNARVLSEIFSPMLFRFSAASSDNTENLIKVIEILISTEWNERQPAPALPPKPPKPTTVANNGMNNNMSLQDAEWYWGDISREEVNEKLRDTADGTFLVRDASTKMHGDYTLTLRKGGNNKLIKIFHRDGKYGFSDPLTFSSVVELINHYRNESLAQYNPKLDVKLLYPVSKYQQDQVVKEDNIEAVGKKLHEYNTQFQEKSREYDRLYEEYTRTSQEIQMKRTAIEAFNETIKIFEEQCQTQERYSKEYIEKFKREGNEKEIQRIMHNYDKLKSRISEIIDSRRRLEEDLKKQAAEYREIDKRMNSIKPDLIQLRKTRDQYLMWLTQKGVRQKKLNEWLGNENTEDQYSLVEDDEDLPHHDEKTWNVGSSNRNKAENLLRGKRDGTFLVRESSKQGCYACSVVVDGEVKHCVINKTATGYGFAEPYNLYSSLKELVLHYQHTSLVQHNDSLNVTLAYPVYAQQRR
# method_summary: Inhibition of isolated enzyme (lipid kinase assay, [γ33P]ATP, TLC)
# particulars: recombinant enzyme, 100 μM ATP, 1 hr room temperature, average of two experiments
readout: IC50

*Q* Requested read-out: IC50. Entry: `CSc1nc2ccccc2n1-c1nc(Nc2cccnc2)nc(N2CCOCC2)n1`
*A* 1000 to 10000 nM

*Q* Requested read-out: IC50. Entry: `COc1cccc2c1nc(C(F)F)n2-c1nc(Nc2cncnc2)nc(N2CCOCC2)n1`
*A* 100 to 1000 nM

*Q* Requested read-out: IC50. Entry: `COc1cccc2c1nc(C(F)F)n2-c1nc(Nc2cccnc2)nc(N2CCOCC2)n1`
*A* 100 to 1000 nM

*Q* Requested read-out: IC50. Entry: `FC(F)c1nc2ccccc2n1-c1nc(NCc2ccccn2)nc(N2CCOCC2)n1`
*A* < 100 nM

*Q* Requested read-out: IC50. Entry: `FC(F)c1nc2ccccc2n1-c1nc(-c2cccnc2)nc(N2CCOCC2)n1`
*A* 100 to 1000 nM

*Q* Requested read-out: IC50. Entry: `Cn1cc(Nc2nc(N3CCOCC3)nc(-n3c(C(F)F)nc4ccccc43)n2)cn1`
*A* 100 to 1000 nM

*Q* Requested read-out: IC50. Entry: `COc1cccc2c1nc(C(F)F)n2-c1nc(Nc2ccc(N(C)C)nc2)nc(N2CCOCC2)n1`
*A* 100 to 1000 nM

*Q* Requested read-out: IC50. Entry: `CS(=O)(=O)c1nc2ccccc2n1-c1nc(Nc2cccnc2)nc(N2CCOCC2)n1`
*A* 100 to 1000 nM

*Q* Requested read-out: IC50. Entry: `FC(F)c1nc2ccccc2n1-c1nc(Nc2cccnn2)nc(N2CCOCC2)n1`
*A* 100 to 1000 nM

*Q* Requested read-out: IC50. Entry: `COc1ncc(Nc2nc(N3CCOCC3)nc(-n3c(C(F)F)nc4c(OC)cccc43)n2)cn1`
*A* 100 to 1000 nM

*Q* Requested read-out: IC50. Entry: `COc1cccc2c1nc(C(F)F)n2-c1nc(N2CCOCC2)nc(N(C)c2cccnc2)n1`
*A* < 100 nM

*Q* Requested read-out: IC50. Entry: `FC(F)c1nc2ccccc2n1-c1nc(Nc2cncnc2)nc(N2CCOCC2)n1`
*A* 100 to 1000 nM

*Q* Requested read-out: IC50. Entry: `FC(F)c1nc2ccccc2n1-c1nc(NCc2cccnc2)nc(N2CCOCC2)n1`
*A* 100 to 1000 nM

*Q* Requested read-out: IC50. Entry: `COc1cccc2c1nc(C(F)F)n2-c1nc(Nc2ccc(N)nc2)nc(N2CCOCC2)n1`
*A* 100 to 1000 nM

*Q* Requested read-out: IC50. Entry: `FC(F)c1nc2ccccc2n1-c1nc(Nc2cccnc2)nc(N2CCOCC2)n1`
*A* < 100 nM

*Q* Requested read-out: IC50. Entry: `COc1cccc2c1nc(C(F)F)n2-c1nc(Nc2ccc(Cl)nc2)nc(N2CCOCC2)n1`
*A* 100 to 1000 nM

*Q* Requested read-out: IC50. Entry: `COc1ccncc1Nc1nc(N2CCOCC2)nc(-n2c(C(F)F)nc3ccccc32)n1`
*A* 100 to 1000 nM

*Q* Requested read-out: IC50. Entry: `FC(F)c1nc2ccccc2n1-c1nc(Nc2ccccc2)nc(N2CCOCC2)n1`
*A* 100 to 1000 nM

*Q* Requested read-out: IC50. Entry: `COc1ccc(Nc2nc(N3CCOCC3)nc(-n3c(C(F)F)nc4c(OC)cccc43)n2)nn1`
*A* 100 to 1000 nM

*Q* Requested read-out: IC50. Entry: `COc1cccc2c1nc(C(F)F)n2-c1nc(Nc2ccncn2)nc(N2CCOCC2)n1`
*A* 100 to 1000 nM

*Q* Requested read-out: IC50. Entry: `COc1cccc2c1nc(C(F)F)n2-c1nc(Nc2ccc(F)nc2)nc(N2CCOCC2)n1`
*A* 100 to 1000 nM

---

Exercise: state measured pIC50 for each of the compounds provided.
# System: NZOV9
# method_summary: Cellular growth inhibition (3H-thymidine incorporation)
# Assay type: cell-based
# particulars: Homo sapiens, five days incubation, 3H-thymidine over the last 6 hrs, read-out: Cell IC50* NZOV9
pIC50: −log10 of the molar value.

*Q* Requested read-out: pIC50. Entry: `COc1ccncc1Nc1nc(N2CCOCC2)nc(-n2c(C(F)F)nc3ccccc32)n1`
*A* 6.00 to 7.00

*Q* Requested read-out: pIC50. Entry: `FC(F)c1nc2ccccc2n1-c1nc(Nc2ccncc2)nc(N2CCOCC2)n1`
*A* > 7.00

*Q* Requested read-out: pIC50. Entry: `FC(F)c1nc2ccccc2n1-c1nc(Nc2ccccc2)nc(N2CCOCC2)n1`
*A* 6.00 to 7.00

*Q* Requested read-out: pIC50. Entry: `COc1cccc2c1nc(C(F)F)n2-c1nc(Nc2cncnc2)nc(N2CCOCC2)n1`
*A* > 7.00

*Q* Requested read-out: pIC50. Entry: `FC(F)c1nc2ccccc2n1-c1nc(Oc2cccnc2)nc(N2CCOCC2)n1`
*A* 5.00 to 6.00

*Q* Requested read-out: pIC50. Entry: `FC(F)c1nc2ccccc2n1-c1nc(NCc2ccccc2)nc(N2CCOCC2)n1`
*A* 6.00 to 7.00

*Q* Requested read-out: pIC50. Entry: `FC(F)c1nc2ccccc2n1-c1nc(Nc2cccnc2)nc(N2CCOCC2)n1`
*A* 6.00 to 7.00

*Q* Requested read-out: pIC50. Entry: `COc1cc(Nc2nc(N3CCOCC3)nc(-n3c(C(F)F)nc4c(OC)cccc43)n2)ncn1`
*A* > 7.00

*Q* Requested read-out: pIC50. Entry: `FC(F)c1nc2ccccc2n1-c1nc(Sc2ccccc2)nc(N2CCOCC2)n1`
*A* < 5.00

*Q* Requested read-out: pIC50. Entry: `FC(F)c1nc2ccccc2n1-c1nc(Nc2cccnn2)nc(N2CCOCC2)n1`
*A* 6.00 to 7.00

*Q* Requested read-out: pIC50. Entry: `COc1cccc2c1nc(C(F)F)n2-c1nc(Nc2ccc(Cl)nc2)nc(N2CCOCC2)n1`
*A* > 7.00

*Q* Requested read-out: pIC50. Entry: `COc1cccc2c1nc(C(F)F)n2-c1nc(Nc2ccncn2)nc(N2CCOCC2)n1`
*A* > 7.00
